- System: C8166-45 cell line
- MEASUREMENT PROTOCOL: MTT Assay (cytotoxicity)
- Format: cell-based, human
- REPORTED CONDITIONS: C8166-45 cells, five days
Lab note: anything with MTT Assay CC30 at or over 60 µM counts as condition met; the rest go in condition not met.

MOL SMILES | TGT | CATEGORY
CCN1c2ncc(COc3cc[n+]([O-])c(C(F)(F)F)c3)cc2C(=O)N(C)c2ccc(Cl)nc21 | C8166-45 cell line | condition met
CCN1c2ncc(CCOc3ccncc3)cc2C(=O)N(C)c2ccc(Cl)nc21 | C8166-45 cell line | condition not met
CCN1c2ncc(COc3cccnc3)cc2C(=O)N(C)c2ccc(Cl)nc21 | C8166-45 cell line | condition met
CCN1c2ncc(COc3cccc(OC)c3)cc2C(=O)N(C)c2ccc(Cl)nc21 | C8166-45 cell line | condition met
CCN1c2ncc(COc3cccc(C(=O)O)c3)cc2C(=O)N(C)c2ccc(Cl)nc21 | C8166-45 cell line | condition met
CCN1c2ncc(CSc3[nH]cnc4nncc3-4)cc2C(=O)N(C)c2ccc(Cl)nc21 | C8166-45 cell line | condition not met
CCN1c2ncc(CCc3ccnc(CO)c3)cc2C(=O)N(C)c2ccc(Cl)nc21 | C8166-45 cell line | condition met
CCN1c2ncc(CCc3ccncc3)cc2C(=O)N(C)c2cccnc21 | C8166-45 cell line | condition met

---

- System: HTLV-IIIB strain of HIV-1 (in C8166-45 cells)
- MEASUREMENT PROTOCOL: Syncytia (human T-cell culture) Assay
- Assay type: cell-based
- REPORTED CONDITIONS: Human immunodeficiency virus 1, T-cell; C8166-45 cells, HTLV-IIIB strain, 72 hours; read-out: Syncytia Assay IC50
- Experimental: Formation of syncytia is a feature of in vitro cultures of CD4+ T-cells infected with HIV-1. In this assay (1), T-cells are treated with a putative replication inhibiting compound and then infected with HIV-1. […] The cultures are incubated for 72 hours (4), at 37° C. with 5% carbon dioxide, and then visually examined for the frequency and distribution of virus-induced giant cell syncytia. The percent inhibition by the test compound is determined by comparison with control values.
The reader will find reported IC50 values listed item by item below.

COMPOUND | IC50 (nM)
CCN1c2ncc(COc3ccccc3)cc2C(=O)N(C)c2ccc(Cl)nc21 [Example 100] | 50
CCN1c2ncc(CCc3ccccc3)cc2C(=O)N(C)c2cccnc21 [Example 42] | 30
CCN1c2ncc(COc3ccncc3)cc2C(=O)N(C)c2ccc(Cl)nc21 [Example 124] | 6

---

- Tested on: C8166-45 cell line
- MEASUREMENT PROTOCOL: MTT Assay (cytotoxicity)
- Type: cell-based, human
- REPORTED CONDITIONS: C8166-45 cells, five days

MOLECULE | MTT Assay CC30
CCN1c2ncc(CC(O)c3ccncc3)cc2C(=O)N(C)c2ccc(F)nc21 (stereo not shown) | > 20 µM
CCN1c2ncc(COc3cccc([N+](=O)[O-])c3)cc2C(=O)N(C)c2ccc(Cl)nc21 | > 60 µM
CCN1c2ncc(COc3ccccc3O)cc2C(=O)N(C)c2ccc(Cl)nc21 | > 60 µM
CCN1c2ncc(COc3ccc(C(=O)OC)cc3)cc2C(=O)N(C)c2ccc(Cl)nc21 | > 60 µM
